Values from PubChem BioAssay (NCI)

# System: CCRF-CEM leukemia
# test.description: NCI tumour cell line growth inhibition, 48 h; in the data active = GI50 below about 0.43 µM; inactive = the rest
Labels: active, inactive

molecule	category.label
COc1ccccc1-c1cc(/C=C2\C(=O)Nc3ncc(Br)cc32)cc(Br)c1O	inactive
CCN(CC)CC.CCOc1ccc(NC(=O)N=C=[N-])cc1.[CH-]1CCCCC1.[CH-]1CCCCC1.[CH-]1CCCCC1.[Cl-].[Sn+4]	active
Cc1ccc2c(c1)C(C)Cc1c(ncnc1-n1cnc3cc(C)ccc31)N2C (configuration not stated)	active
COc1ccccc1/C=C/C(=O)c1c(O)cc2occc2c1OC	inactive
Fc1ccc(-c2nn3c(CNc4ccccc4)nnc3s2)cc1	inactive
CNC(=O)c1c(NC(=O)c2ccc(C(F)(F)F)cc2)sc2c1CCC(=O)C2	active
CC(C)CC1C(=O)N2CCC[C@H]2C2(O)O[C@](NC(=O)C3C=C4c5cccc6[nH]c(Br)c(c56)C[C@H]4N(C)C3)(C(C)C)C(=O)N12 (some centres not stated)	inactive
O=C(N/N=C/c1ccccc1O)C(O)(c1ccccc1)c1ccccc1	inactive
C=CC(=O)N1C/C(=C\c2ccccc2)C(=O)/C(=C/c2ccccc2)C1	inactive
CCCCCCCCCCCCNC(=O)[C@H]1CSC(c2cc3ccccc3s2)N1 (some centres not stated)	inactive
C/C1=C/C(=O)O[C@@H]2C[C@@H](CC[C@H](C)/C=C\C=C\CC1)O[C@@](O)([C@@H]1CSC(=O)N1CO)C2	active
CCN1C(=O)N(CC)C2C1NN=c1s/c(=C\c3ccccc3F)c(=O)n12 (configuration not stated)	active
